# Tested on: NCI/ADR-RES ovarian
# test: NCI tumour cell line growth inhibition, 48 h
outcome-measure: log10 of TGI (log10 of the value in µM)

- compound: "O=C(C1OC1c1cccc([N+](=O)[O-])c1)C12CC3CC(CC(C3)C1)C2 (centres undefined)"
  reading: 0.99
- compound: "CC(CC[C@@]1(O)OC2C[C@H]3[C@@H]4CC[C@H]5CC(OC6OC(CO)C(OC7OC(CO)C(O)C(OC8OCC(O)C(O)C8O)C7OC7OC(CO)C(O)C(O)C7O)C(O)C6O)[C@H](O)CC5(C)[C@H]4CCC3(C)C2[C@@H]1C)COC1OC(CO)C(O)C(O)C1O (some centres undefined)"
  reading: 1.49
- compound: "CC(=O)O[C@H]1C(=O)[C@@]2(C)[C@H]([C@H](OC(=O)c3ccccc3)[C@]3(O)C[C@H](OC(=O)[C@H](O)[C@@H](NC(=O)c4ccc(N(C)C)cc4)c4ccccc4)C(C)=C1C3(C)C)[C@]1(OC(C)=O)CO[C@@H]1C[C@@H]2O"
  reading: 1.22
- compound: "O=C(CN(/C=C/C(=O)C(F)(F)F)c1ccccc1)c1ccc(Cl)cc1"
  reading: 1.56
- compound: "CC(C)=C1CCC(CN2CCOCC2)C1=O (centres undefined)"
  reading: 1.61
- compound: "COc1cc2nc(-c3cccc4cccnc34)nc(NC3CCN(Cc4ccccc4)CC3)c2cc1OC"
  reading: 0.75
- compound: "COc1ccc2oc(C(=O)N3CC(CCl)c4ccc(N)cc43)cc2c1 (centres undefined)"
  reading: -0.12
- compound: "Oc1c(O)c(Cl)c(Cl)c(Cl)c1Cl"
  reading: 1.01
- compound: "O=C(/C=C\\n1cnc(-c2cc(C(F)(F)F)cc(C(F)(F)F)c2)n1)N1CC(F)(F)C1"
  reading: 1.04
- compound: "CCc1nc2cc(/C=C/C(=O)NO)ccc2c(=O)n1CCc1ccc(OC)cc1"
  reading: 1.09

###

# Tested on: BT-549 breast
# test: NCI tumour cell line growth inhibition, 48 h; in the data active = GI50 below about 0.43 µM; inactive = the rest
Labels: active, inactive

- molecule: "O=C(Oc1ccccc1)C(Br)C(Br)c1ccccc1 (stereo not given)"
  category-label: "inactive"
- molecule: "COc1cc(CN(c2ccc(C)cc2)C2OC(=O)c3ccccc32)cc(OC)c1OC (stereo not given)"
  category-label: "inactive"
- molecule: "Cn1cc(C2=C(c3ccccc3C(F)(F)F)C(=O)NC2=O)c2ccccc21"
  category-label: "inactive"
- molecule: "CC12OC(C(=O)C13CCC3)C1C(=O)c3ccc4c(ccc5ccccc54)c3C(=O)C12 (stereo not given)"
  category-label: "inactive"
- molecule: "Cc1nc(Sc2nc3ccc([N+](=O)[O-])cc3s2)sc1C"
  category-label: "inactive"
- molecule: "C[C@H](NC(=O)c1c(C(F)F)nn(C)c1Oc1cccc(C(F)(F)F)c1)c1ccc(C(=O)O)cc1"
  category-label: "inactive"
- molecule: "COc1ccc(-c2nn3ncccc3c2-c2ccnc(Nc3ccc4c(c3)OCCO4)n2)cc1"
  category-label: "inactive"
- molecule: "COc1cccc(NC(=O)c2sc3nc4c(cc3c2N)C(O)CCC4)c1 (stereo not given)"
  category-label: "active"
- molecule: "CCOc1ccc(C(C)=O)cc1NC(=O)c1cccc(-c2nnn(CC)n2)c1"
  category-label: "inactive"
- molecule: "COc1ccc2nc3cccc([N+](=O)[O-])c3c(NCCNCCN(C)C)c2c1"
  category-label: "inactive"

###

# Tested on: UO-31 renal
# test: NCI tumour cell line growth inhibition, 48 h
Parameter TGI: see the listing below.

- compound: "OC12CCC3(O)c4ccccc4C3C1c1ccccc12 (stereo not given)"
  test-system: "UO-31 renal"
  result-units: "µM"
  inequality-symbol: ">"
  TGI: 100
- compound: "COC(=O)C1(O)C(c2ccccc2)NC2(C)CCCC21 (stereo not given)"
  test-system: "UO-31 renal"
  result-units: "µM"
  inequality-symbol: ">"
  TGI: 100
- compound: "O=C(O)Cn1ccc2ccccc21"
  test-system: "UO-31 renal"
  result-units: "µM"
  inequality-symbol: ">"
  TGI: 100
- compound: "CCNC(=S)NNC(=O)CSc1nc2ccc(I)cc2c(=O)n1Cc1ccccc1"
  test-system: "UO-31 renal"
  result-units: "µM"
  inequality-symbol: "="
  TGI: 0.136
- compound: "O=C1NC(=Nc2ccccc2)C(=Nc2ccccc2)N1c1ccccc1"
  test-system: "UO-31 renal"
  result-units: "µM"
  inequality-symbol: "="
  TGI: 30.1

###

# Test system: K-562 leukemia
# test: NCI tumour cell line growth inhibition, 48 h; in the data active = GI50 below about 0.43 µM; inactive = the rest
Classes used: label 1 for active, label 0 for inactive

- molecule: "CC12OC(C(=O)C13CCC3)C1C(=O)c3ccc4c(ccc5ccccc54)c3C(=O)C12 (stereo unspecified)"
  test-system: "K-562 leukemia"
  category-label: "label 0"
- molecule: "CCc1nc2cc(/C=C/C(=O)NO)ccc2c(=O)n1CCc1ccc(OC)cc1"
  test-system: "K-562 leukemia"
  category-label: "label 0"
- molecule: "COc1cc(CN(c2ccc(C)cc2)C2OC(=O)c3ccccc32)cc(OC)c1OC (stereo unspecified)"
  test-system: "K-562 leukemia"
  category-label: "label 1"
- molecule: "CN1CCN(CCCOc2cccc3nc(Nc4ccc(F)c(F)c4)ccc23)CC1"
  test-system: "K-562 leukemia"
  category-label: "label 0"
- molecule: "Cc1c(C)c2c(c(C)c1OCC(=O)O)CC[C@@](C)(CCC[C@@H](C)CCC[C@@H](C)CCCC(C)C)O2"
  test-system: "K-562 leukemia"
  category-label: "label 0"
- molecule: "CCOC(=O)C#Cc1c(C(=O)OCC)nnn1[C@@H]1O[C@H](CO)[C@H]2OC3(CCCCC3)O[C@H]21"
  test-system: "K-562 leukemia"
  category-label: "label 0"
- molecule: "CCOc1ccc(C(C)=O)cc1NC(=O)c1cccc(-c2nnn(CC)n2)c1"
  test-system: "K-562 leukemia"
  category-label: "label 0"
- molecule: "COc1ccc(-c2nn3ncccc3c2-c2ccnc(Nc3ccc4c(c3)OCCO4)n2)cc1"
  test-system: "K-562 leukemia"
  category-label: "label 0"
- molecule: "COc1ccc2nc3cccc([N+](=O)[O-])c3c(NCCNCCN(C)C)c2c1"
  test-system: "K-562 leukemia"
  category-label: "label 1"
- molecule: "Nc1ccccc1C(=O)NC(=O)Nc1ccc(Oc2ncc(Br)cn2)c(Cl)c1"
  test-system: "K-562 leukemia"
  category-label: "label 1"
- molecule: "C=C(CN1c2ccccc2Sc2ccccc21)c1ccc(C(=O)Nc2ccccc2N)cc1"
  test-system: "K-562 leukemia"
  category-label: "label 0"
- molecule: "COc1cc(Nc2ncnc(Nc3ccc4c(n3)NC(=O)C(C)(C)O4)n2)cc(OC)c1OC"
  test-system: "K-562 leukemia"
  category-label: "label 0"
- molecule: "COc1ccc(-c2n[nH]nc2-c2cc(OC)c3c(c2)OCO3)cc1"
  test-system: "K-562 leukemia"
  category-label: "label 1"
- molecule: "NC(CSC(c1ccccc1)(c1ccccc1)c1ccc(F)cc1)C(=O)O (stereo unspecified)"
  test-system: "K-562 leukemia"
  category-label: "label 1"
- molecule: "COc1ccc(-c2nsc3c2NC(=O)CC3c2cccc(Cl)c2)cc1 (stereo unspecified)"
  test-system: "K-562 leukemia"
  category-label: "label 1"
- molecule: "NCCOc1ncccc1/C=C1\\c2ccccc2-c2ccc([N+](=O)[O-])cc21"
  test-system: "K-562 leukemia"
  category-label: "label 1"

###

Overview of reported TGI across a group of compounds:
# Test system: PC-3 prostate
# test: NCI tumour cell line growth inhibition, 48 h

- compound: "CC(C)(C)c1nc(-c2cccc(NS(=O)(=O)c3c(F)cccc3F)c2F)c(-c2ccnc(N)n2)s1"
  TGI: "> 100 µM"
- compound: "C#CC(O)/C=C/C(O)CCCC(O)CC#CC(O)C#CCCCCC(O)/C=C/CCCC(O)/C=C/CCCCCCCCCCCCCC(O)C(O)C#CC(=O)O (centres undefined)"
  TGI: "> 25 µM"
- compound: "O=C(Nc1ccc2c(c1)OCCO2)C(=O)c1c[nH]c2ccccc12"
  TGI: "> 100 µM"
- compound: "CCN(CC)c1ccc(/C=N/NC(=O)CSc2nc3ccccc3c(=O)n2Cc2ccc(S(N)(=O)=O)cc2)c(O)c1"
  TGI: "> 100 µM"

###

# Test system: DU-145 prostate
# test: NCI tumour cell line growth inhibition, 48 h

- molecule: "C/C(=N\\NC(N)=S)c1sc(-n2nc(-c3ccccc3)cc2-c2ccccc2)nc1C"
  TGI: "> 100 µM"
- molecule: "COc1cc(S(=O)(=O)Nc2ccc(-c3csc(N4C(=O)C(Cl)C4c4cccs4)n3)cc2)ccc1Cl (stereo not given)"
  TGI: "> 100 µM"
- molecule: "COc1cc(OC)c(OC)cc1/C=C/c1cc[n+](C)c2ccccc12"
  TGI: "> 100 µM"
- molecule: "COc1ccc2[nH]c(C(=O)OCc3ccc4cccc(O)c4n3)cc2c1"
  TGI: "2.93 µM"
- molecule: "Cc1cc(N(CCC#N)CCC#N)ccc1/C(N=Nc1ccc([N+](=O)[O-])cc1)=N\\NC(=O)c1ccccc1"
  TGI: "> 100 µM"
- molecule: "O=C(CN(/C=C/C(=O)C(F)(F)F)c1ccccc1)c1ccc(Cl)cc1"
  TGI: "> 100 µM"
- molecule: "COc1cc(NC(C)CCCNC(C)C)c2ncccc2c1OC (stereo not given)"
  TGI: "> 100 µM"
- molecule: "CC(C)=C1CCC(CN2CCOCC2)C1=O (stereo not given)"
  TGI: "30.4 µM"
- molecule: "C#C[C@]1(O)CC[C@H]2[C@@H]3CCC4=C/C(=N/OC(=O)c5cccc6c(=O)c7ccccc7[nH]c56)CCC4[C@H]3CC[C@@]21CC (stereo not given in full)"
  TGI: "> 100 µM"
- molecule: "CCOC(=O)C#Cc1c(C(=O)OCC)nnn1[C@@H]1O[C@H](CO)[C@H]2OC3(CCCCC3)O[C@H]21"
  TGI: "13.6 µM"
- molecule: "Cc1ccc(SCC(OCn2cnc3c(Cl)nc(N)nc32)[C@H](C)F)cc1 (stereo not given in full)"
  TGI: "> 100 µM"
- molecule: "COc1ccc(-c2n[nH]nc2-c2cc(OC)c3c(c2)OCO3)cc1"
  TGI: "1.19 µM"
- molecule: "CCOc1ccc(C(C)=O)cc1NC(=O)c1cccc(-c2nnn(CC)n2)c1"
  TGI: "> 100 µM"
- molecule: "C=CCn1c(-c2ccc(Cl)cc2)csc1=Nc1ccccc1OC"
  TGI: "> 100 µM"
- molecule: "N#Cc1c(-c2ccc([N+](=O)[O-])cc2)cc(-c2ccc(Nc3ccnc4cc(Cl)ccc34)cc2)nc1N"
  TGI: "33.2 µM"
- molecule: "CCc1nn2ncccc2c1-c1ccnc(NC2CC2)n1"
  TGI: "> 25 µM"
- molecule: "COc1cc(CN(c2ccc(C)cc2)C2OC(=O)c3ccccc32)cc(OC)c1OC (stereo not given)"
  TGI: "> 76.6 µM"
- molecule: "CCN(CC)c1nc(NC2CCCCC2)c2nc(N(CC)CC)nc(NC3CCCCC3)c2n1"
  TGI: "> 100 µM"
- molecule: "COc1cccc(NC(=O)c2sc3nc4c(cc3c2N)C(O)CCC4)c1 (stereo not given)"
  TGI: "> 29.2 µM"
- molecule: "CNC(=S)/C(C#N)=C(\\N)N1CCCC1"
  TGI: "> 100 µM"
- molecule: "Cc1cc(C)nc(NS(=O)(=O)c2ccc(NC(=O)c3cc([N+](=O)[O-])cc([N+](=O)[O-])c3)cc2)n1"
  TGI: "> 100 µM"
- molecule: "S=C(CSc1ccccc1)Nc1cccc2ccccc12"
  TGI: "> 100 µM"
- molecule: "Cc1cc(NS(=O)(=O)c2ccc(Nc3c4ccccc4nc4c(C(=O)NCCO)cccc34)cc2)no1"
  TGI: "> 100 µM"
- molecule: "COc1ccc(C2C3=C(COC3=O)OC(C)(C)Oc3cc4c(cc32)OCO4)cc1OC (stereo not given)"
  TGI: "> 100 µM"
- molecule: "CCOc1ccc(N=Cc2ccnc3ccccc23)cc1"
  TGI: "> 100 µM"
- molecule: "COc1ccccc1C1C(C#N)=C(N)Oc2cc(O)ccc21 (stereo not given)"
  TGI: "94.1 µM"
- molecule: "Cc1cn(C2OC(CO)C(O)C2F)c(=O)[nH]c1=O (stereo not given)"
  TGI: "> 100 µM"
- molecule: "CC[C@@H](O)C[C@H]1CCC[C@@]2(C[C@@H]3OC(=O)/C=C/[C@@](C)(O)[C@@H](O)[C@H](C)[C@@H](O)[C@H](OC4CCC(N(C)C)C(C)O4)[C@@H](O)[C@](C)(O)CCCCC/C=C/[C@@H]4CC(C)(C)O[C@@]4(O)C[C@H](O2)[C@H]3C)O1 (stereo not given in full)"
  TGI: "24.1 µM"
- molecule: "CC(=O)n1nc(-c2ccc3ccccc3c2)nc1C"
  TGI: "> 100 µM"
- molecule: "CCOc1cc(-c2nc3cc(F)ccc3s2)ccc1O"
  TGI: "32.2 µM"
